Test: In vitro plasma protein binding (equilibrium dialysis), minipig
Assay type: in vitro ADME
Settings: pH 7.4, dialysis 2 hours at 37° C., read-out: Fraction bound (converted)
Experimental: Dianorm Teflon dialysis cells (micro 0.2) are used. Each cell consists of a donor (i.e., buffer chamber) and an acceptor chamber (i.e., plasma chamber), separated by an ultrathin semipermeable membrane with a 5 kDa molecular weight cutoff. Stock solutions for each test compound are prepared in DMSO at 1 mM and diluted to a final concentration of 1.0 μM. […] Percent bound is calculated with the formula: % bound=(plasma concentration−buffer concentration/plasma concentration)×100.
quantityName: fraction unbound at 2 h, 1 μM
Form: value (number only, do not type unit).

Query CO[C@H]1COCC[C@H]1NC1CCN(C(=O)c2ncnc(NC[C@H]3CCC[C@@H](c4ccc(C)cc4)O3)c2C)CC1 yields fraction unbound at 2 h, 1 μM of 0.392
